Data credit: patent US20030068675

Biological target: T1, ZFP SBS#375 (synthetic)
T1 chain: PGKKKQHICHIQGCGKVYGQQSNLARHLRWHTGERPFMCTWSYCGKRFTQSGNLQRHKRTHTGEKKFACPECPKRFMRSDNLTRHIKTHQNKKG
Test: EMSA
Details: tags: MBP fusion
pKd: −log10 of the molar value.
result type: pKd

{"binder": "GAGGAAGAT (dsDNA) DNA 1: GAGGAAGAT DNA 2: ATCTTCCTC", "result number": 7.07}
